# Tested on: H460
# procedure text: Cytotoxicity assay (propidium iodide), H460
# Assay type: cell-based
# measurement conditions: Homo sapiens, NCI-H460; H460 (C1b, lung); 48 hours
For each entry below, report its IC50 value.

Task: Could you tell me which IC50 is on file for "CN(N=Cc1cnc2ccc(-c3cccnc3)cn12)S(=O)(=O)c1ccc(F)c(C#N)c1" ?
Output: 0.01 to 5 µM

Task: Now this one: "CN(/N=C/c1cnc2ccc(-c3cccnc3)cn12)S(=O)(=O)c1cc(C(F)(F)F)ccc1Cl"
Output: 0.01 to 5 µM

Task: Now this one: "Cc1ccc(S(=O)(=O)N(C)N=Cc2cnc3ccc(-c4cccnc4)cn23)cc1"
Output: 0.01 to 5 µM

Task: Now this one: "Cc1cc(C)c(S(=O)(=O)N(C)N=Cc2cnc3ccc(-c4cccnc4)cn23)c(C)c1"
Output: > 5 µM

Task: Now this one: "CN(N=Cc1cnc2ccc(-c3cccnc3)cn12)S(=O)(=O)c1ccccc1C#N"
Output: 0.01 to 5 µM

Task: Now this one: "Cc1ccccc1S(=O)(=O)N(C)/N=C/c1cnc2ccc(-c3cccnc3)cn12"
Output: 0.01 to 5 µM

Task: Now this one: "CN(N=Cc1cnc2ccc(-c3cccnc3)cn12)S(=O)(=O)c1ccc(C#N)cc1"
Output: > 5 µM

Task: Now this one: "Cc1ccc([N+](=O)[O-])cc1S(=O)(=O)N(C)N=Cc1cnc2ccc(-c3ccncc3)cn12"
Output: 0.01 to 5 µM

Task: Now this one: "CN(N=Cc1cnc2ccc(-c3cccnc3)cn12)S(=O)(=O)C1CCCCC1"
Output: 0.01 to 5 µM

Task: Now this one: "CN(N=Cc1cnc2ccc(-c3cccnc3)cn12)S(=O)(=O)c1c(F)cc(F)cc1Br"
Output: 0.01 to 5 µM

Task: Now this one: "Cc1ccc(F)cc1S(=O)(=O)N(C)/N=C/c1cnc2c(C)cc(-c3cccnc3)cn12"
Output: 0.01 to 5 µM

Task: Now this one: "Cc1ccc([N+](=O)[O-])cc1S(=O)(=O)N(C)N=Cc1cnc2ccc(-c3cnc4ccccc4c3)cn12"
Output: 0.01 to 5 µM

Task: Now this one: "Cc1ccc([N+](=O)[O-])cc1S(=O)(=O)N(C)N=Cc1cnc2ccc(-c3cccnc3)cn12"
Output: 0.01 to 5 µM

Task: Now this one: "Cc1ccc(S(=O)(=O)N(C)N=Cc2cnc3ccc(-c4cccnc4)cn23)cc1F"
Output: > 5 µM

* * *

# Test system: A2780
# procedure text: Cytotoxicity assay (propidium iodide), A2780
# Assay type: cell-based
# measurement conditions: A2780 (C3a, ovarian); 48 hours
measure: IC50

Task: Could you tell me which IC50 is on file for "Cc1ccc([N+](=O)[O-])cc1S(=O)(=O)N(C)N=Cc1cnc2ccc(-c3ccc(F)nc3)cn12" ?
Output: 10 to 5000 nM

Task: Now this one: "Cc1cccc(S(=O)(=O)N(C)N=Cc2cnc3ccc(-c4cccnc4)cn23)c1"
Output: 10 to 5000 nM
